Origin of values: the supplement of paper PMC7877785

experiment: self-splicing fitness, log relative to wild type (ln ratio); higher = more splicing; Tetrahymena group I intron in knt gene, E. coli kanamycin selection, DiMSum; sequences stand for … in CUCUCU…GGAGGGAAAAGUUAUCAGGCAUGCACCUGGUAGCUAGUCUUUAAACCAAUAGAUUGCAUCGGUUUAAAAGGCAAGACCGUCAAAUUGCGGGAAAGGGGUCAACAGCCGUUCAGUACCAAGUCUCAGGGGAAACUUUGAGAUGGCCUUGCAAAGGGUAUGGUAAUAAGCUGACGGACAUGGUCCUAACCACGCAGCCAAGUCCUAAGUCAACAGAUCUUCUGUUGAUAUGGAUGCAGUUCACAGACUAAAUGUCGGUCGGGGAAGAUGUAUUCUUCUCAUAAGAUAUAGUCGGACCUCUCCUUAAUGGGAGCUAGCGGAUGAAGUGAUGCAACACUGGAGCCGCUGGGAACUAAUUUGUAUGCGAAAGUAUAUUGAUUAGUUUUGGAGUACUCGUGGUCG; settings: 30 °C;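 further: selection with 25 µg/mL kanamycin versus none on LB agar overnight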
Some sequences, each annotated with its measured self-splicing fitness (ln).

sequence string	self-splicing fitness (ln)
UUCAAGCAAUAUUACGGUGU	-2.98
UUGAAGCAAUAUUACGCUUU	-3.5
UGUCAGCAAUAUUACGGUGA	-0.413
CCCGAGCAAUAUUACGUGCA	-3.5
AAGGAGCAAUAUUACGGUGG	-3.21
CCACAGCAAUAUUACGUUUA	-3.53
GAUCAGCAAUAUUACGAAUU	-1.21
GAUCAGCAAUAUUACGCGUA	-0.39
GAGCAGCAAUAUUACGUACA	-1.06
ACAAAGCAAUAUUACGUUGG	-2.44
GAACAGCAAUAUUACGCCUA	-1.42
AGCGAGCAAUAUUACGCCCU	-1.34
GUGUAGCAAUAUUACGUACU	-1.52
CAGGAGCAAUAUUACGCGCA	-3.62
UACUAGCAAUAUUACGCAUU	-3.73
UCACAGCAAUAUUACGUCGG	-1.43
UGUUAGCAAUAUUACGCACG	-0.922
AAACAGCAAUAUUACGUACU	-0.273
CGAAAGCAAUAUUACGGUAG	-0.561
CAUCAGCAAUAUUACGUCGG	-0.265
UUCCAGCAAUAUUACGACCA	-0.177
AGGCAGCAAUAUUACGUUAU	-1.78
GUAUAGCAAUAUUACGAGGC	-2.1
UAGCAGCAAUAUUACGACUA	0.282
CUGGAGCAAUAUUACGGCCG	-0.999
AUUUAGCAAUAUUACGACCC	-1.16
CGCAAGCAAUAUUACGAUCA	-1.58
CUAAAGCAAUAUUACGACUG	0.0292
GUGUAGCAAUAUUACGCUAA	-1.77
AUGUAGCAAUAUUACGCGAA	-0.976
UUCGAGCAAUAUUACGAGCU	-3.65
UCUGAGCAAUAUUACGAGUC	-2.7
UCAUAGCAAUAUUACGCAAG	-1.94
CUAAAGCAAUAUUACGUACA	-2.52
GCGCAGCAAUAUUACGGGCU	-3.6
CACAAGCAAUAUUACGCUAA	-2.58
GGUCAGCAAUAUUACGAACU	-0.446
AUAGAGCAAUAUUACGCUUC	-2.52
CGCGAGCAAUAUUACGGGCU	-3.12
UCCAAGCAAUAUUACGUGGA	-2.9
CGGAAGCAAUAUUACGUUUA	-3.07
UAACAGCAAUAUUACGAAGG	-1.76
GUCUAGCAAUAUUACGGGUC	-2.14
UACAAGCAAUAUUACGGUUC	-3.49
AUGCAGCAAUAUUACGUCUG	-3.64
AGAUAGCAAUAUUACGAUGC	-2.02
UAAAAGCAAUAUUACGGGGC	-3.59
CAGCAGCAAUAUUACGUCGG	-0.346
UCCAAGCAAUAUUACGAGGC	-3.67
AUGCAGCAAUAUUACGGCCU	0.794
UCUCAGCAAUAUUACGGAAC	-3.48
CCGAAGCAAUAUUACGUAAC	-4.94
CUUCAGCAAUAUUACGUGCU	-3.07
CCCAAGCAAUAUUACGAUAG	-2.95
UCACAGCAAUAUUACGGUCG	-0.0254
CCGAAGCAAUAUUACGUUGG	-3.26
GGGGAGCAAUAUUACGUAUA	-1.69
AUGCAGCAAUAUUACGGAUG	-4.6
UGCGAGCAAUAUUACGCCGU	-3.36
GCCGAGCAAUAUUACGAACU	-2.13
CACUAGCAAUAUUACGUAAA	-3.48
CCCGAGCAAUAUUACGGACU	-2.57
UUCGAGCAAUAUUACGAAAG	-2.66
CCAAAGCAAUAUUACGAUGA	-2.55
AAGGAGCAAUAUUACGGCGC	-2
ACAGAGCAAUAUUACGCGGU	-4.3
UUCCAGCAAUAUUACGCAGU	-3.23
